Test: Antifungal activity against Fusarium falciforme ATCC 3636
Type: functional
MEASUREMENT KIND: MIC (µg/mL)
Kindly answer with a numeric value in µg/mL, unit omitted.

Consider the reported MIC for these compounds:
Cc1cc(C2=CCN(C(=N)N)CC2)ccc1-c1nnc(-c2ccc(C3=CCN(C(=N)N)CC3)cc2)n1C = 0.2
N=C(N)N1CC=C(c2ccc(-c3nnc(-c4ccc(C5=CCN(C(=N)N)CC5)cc4)n3C3CCCCC3)cc2)CC1 = 0.2
Cn1c(-c2ccc(C3=CCN(C(=N)N)CC3)cc2)nnc1-c1ccc(C2=CCN(C(=N)N)CC2)c(C(F)(F)F)c1 = 0.2
Cc1cc(C2=CCN(C(=N)N)CC2)ccc1-c1nnc(-c2ccc(C3=CCN(C(=N)N)CC3)cc2)o1 = 0.2

Prompt: Item under review: Cn1c(-c2ccc(C3CCN(C(=N)N)CC3)cc2)nnc1-c1ccc(C2CCN(C(=N)N)CC2)cc1 . Reported MIC?
Response: 0.78
